Test: in vitro liver microsome metabolic stability, human
Format: in vitro ADME
Conditions: Human liver microsomes, 37°C
Procedure: Preparation of working solutions for test compounds and standards: An appropriate amount of the compound was accurately weighed and dissolved in a corresponding volume of suitable solvent to prepare 1 mM stock solutions of the test compounds and standards. The stock solutions were then diluted with appropriate solvent to obtain 100 µM working solutions of the test compounds, ensuring that the DMSO content in the working solutions remained below 10%. […]
property measured: Liver microsome T1-2 (min) Human
Numbers only; they are read as min.

Answered cases to consult:
compound: Cc1cc(F)cnc1[C@H](Nc1c(Nc2ccnc(C(=O)N(C)C)c2O)c(=O)c1=O)[C@]1(C)CC(F)(F)CO1 [093A]
observed measurement: 359.51

compound: CN(C)C(=O)c1nccc(Nc2c(NC(c3nc(Cl)ccc3F)C3(C)CC4CC4C3)c(=O)c2=O)c1O (centres unmarked)
observed measurement: 226.52

compound: CN(C)C(=O)c1nccc(Nc2c(NC(c3nc(F)ccc3F)C3(C)CC(F)(F)CO3)c(=O)c2=O)c1O (centres unmarked)
observed measurement: 1048.05

compound: CN(C)C(=O)c1nccc(Nc2c(NC(c3nc(F)ccc3F)C3(C)CC4CC4C3)c(=O)c2=O)c1O (centres unmarked)
observed measurement: 531.62

compound: CC#C[C@H](Nc1c(Nc2ccnc(C(=O)N(C)C)c2O)c(=O)c1=O)C1(C)CCCC1
observed measurement: 577.09

Shift focus to the following entry.
The reported value for CN(C)C(=O)c1nccc(Nc2c(N[C@@H](c3nc(C(F)F)ccc3F)C3(C)CC(F)(F)CO3)c(=O)c2=O)c1O (some centres unmarked) in terms of Liver microsome T1-2 (min) Human is 724.74

###

Target: human CCR6 (Homo sapiens)
Sequence (P51684 whole entry): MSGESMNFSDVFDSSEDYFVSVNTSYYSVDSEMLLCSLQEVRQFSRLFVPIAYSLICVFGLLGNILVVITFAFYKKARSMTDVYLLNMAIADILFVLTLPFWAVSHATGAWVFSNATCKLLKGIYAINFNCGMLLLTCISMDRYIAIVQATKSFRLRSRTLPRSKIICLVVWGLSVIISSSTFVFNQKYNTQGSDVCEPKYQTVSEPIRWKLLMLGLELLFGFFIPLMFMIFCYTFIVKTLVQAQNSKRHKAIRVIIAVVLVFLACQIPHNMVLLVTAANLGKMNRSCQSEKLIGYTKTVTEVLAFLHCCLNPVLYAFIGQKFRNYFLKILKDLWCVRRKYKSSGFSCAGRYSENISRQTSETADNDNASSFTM
Experiment: human CCR6 calcium flux activity (FLIPR, HEK293 cells stably expressing human CCR6, CCL20 stimulation)
Conditions: HEK293 cells stably expressing human CCR6, EC80 human MIP-3 alpha/CCL20; read-out: CCR6 inhibitory activity, IC50
property measured: IC50 (nM)
Give your result in nM as a bare value.

Past entries and their recorded results:
compound: CN(C)C(=O)c1nccc(Nc2c(NC(c3nc(Cl)ccc3F)C3(C)CC4CC4C3)c(=O)c2=O)c1O (stereo not shown) [compound 085]
observed measurement: 38
--
compound: Cc1cncnc1C(Nc1c(Nc2ccnc(C(=O)N(C)C)c2O)c(=O)c1=O)C1(C)CCCC1 (stereo not shown) [compound 052]
observed measurement: 196
--
compound: CC(C)N(C)C(=O)c1nccc(Nc2c(N[C@@H](c3ncccc3F)C3(C)CCCC3)c(=O)c2=O)c1O [compound 026]
observed measurement: 0.7

The compound listed as CN(C)C(=O)c1nccc(Nc2c(N[C@@H](c3ncccc3F)C3(C)CCCC3)c(=O)c2=O)c1O [compound 001] shows IC50 equal to 2.4

Item: CN(C)C(=O)c1nccc(Nc2c(N[C@@H](c3ncccc3C(F)F)C3(C)CCCC3)c(=O)c2=O)c1O [compound 015] | IC50: 161

// CC#CC(Nc1c(Nc2ccnc(C(=O)N(C)C)c2O)c(=O)c1=O)C1(C)CC(F)(F)CO1 (stereo not shown) [compound 112] : IC50 value = 165

Query Cc1nccnc1[C@H](Nc1c(Nc2ccc(Cl)c(C(=O)N(C)C)c2O)c(=O)c1=O)C1(C)CCCC1 [compound 078] yields IC50 of 56.2

###

Recorded Liver microsome T1-2 (min) Beagle dog values for a group of molecules are listed next.
Experiment: in vitro liver microsome metabolic stability, beagle dog
Assay type: in vitro ADME
Details: Beagle dog liver microsomes, 37°C
Please give a number only; it is taken to be in min.

Sample answers from the record:
molecule: CN(CC(F)(F)F)C(=O)c1nccc(Nc2c(N[C@@H](c3ccc(F)cn3)C3(C)CCCC3)c(=O)c2=O)c1O
Liver microsome T1-2 (min) Beagle dog: 37.22

molecule: Cc1cccnc1[C@H](Nc1c(Nc2ccc(Cl)c(C(=O)N(C)C)c2O)c(=O)c1=O)C1(C)CC(F)(F)C1
Liver microsome T1-2 (min) Beagle dog: 753.15

molecule: Cc1cccnc1[C@H](Nc1c(Nc2ccc(F)c(C(=O)N(C)C)c2O)c(=O)c1=O)C1(C)CC(F)(F)C1
Liver microsome T1-2 (min) Beagle dog: 258.52

molecule: Cc1cccnc1C(Nc1c(Nc2ccc(F)c(C(=O)N(C)C)c2O)c(=O)c1=O)[C@@]1(C)CC(F)(F)CO1 (some centres unmarked) [087B]
Liver microsome T1-2 (min) Beagle dog: 567.51

molecule: CN(C)C(=O)c1nccc(Nc2c(NC(c3nc(C(F)(F)F)ccc3F)C3(C)CC(F)(F)CO3)c(=O)c2=O)c1O (centres unmarked)
Liver microsome T1-2 (min) Beagle dog: 102.59

molecule: CN(C)C(=O)c1nccc(Nc2c(N[C@@H](c3nc(Cl)ccc3F)[C@@]3(C)CC(F)(F)CO3)c(=O)c2=O)c1O [068B]
Liver microsome T1-2 (min) Beagle dog: 199.34

molecule: CN(CC(F)F)C(=O)c1nccc(Nc2c(N[C@@H](c3ccc(F)cn3)C3(C)CCCC3)c(=O)c2=O)c1O
Liver microsome T1-2 (min) Beagle dog: 54.52

molecule: CN(C)C(=O)c1nccc(Nc2c(NC(c3nc(F)ccc3F)C3(C)CC(F)(F)CO3)c(=O)c2=O)c1O (centres unmarked)
Liver microsome T1-2 (min) Beagle dog: 1250.74

molecule: Cc1cc(F)cnc1[C@H](Nc1c(Nc2ccnc(C(=O)N(C)C)c2O)c(=O)c1=O)[C@]1(C)CC(F)(F)CO1 [093A]
Liver microsome T1-2 (min) Beagle dog: 104.27

molecule: CC#C[C@H](Nc1c(Nc2ccnc(C(=O)N(C)C)c2O)c(=O)c1=O)C1(C)CCCC1
Liver microsome T1-2 (min) Beagle dog: 520.59

Looking up Cc1nccnc1[C@H](Nc1c(Nc2ccc(F)c(C(=O)N(C)C(C)C)c2O)c(=O)c1=O)C1(C)CCCC1 , I see its Liver microsome T1-2 (min) Beagle dog listed as 355.30

Measured Liver microsome T1-2 (min) Beagle dog of CN(C)C(=O)c1nccc(Nc2c(N[C@@H](c3ccc(F)cn3)C3(C)CCCC3)c(=O)c2=O)c1O : 254.48

Entry CC#CC(Nc1c(Nc2ccnc(C(=O)N(C)C)c2O)c(=O)c1=O)C1(C)CCC(F)(F)C1 (centres unmarked) , Liver microsome T1-2 (min) Beagle dog reported as 982.5

Lab note: measured Liver microsome T1-2 (min) Beagle dog of Cc1nccnc1[C@H](Nc1c(Nc2ccc(F)c(C(=O)N(C)C)c2O)c(=O)c1=O)C1(C)CCCC1 was 2270.89

###

Test: in vivo pharmacokinetic study in SD rats
Settings: male, rat, plasma, 1 mg/kg, PO
property measured: Cmax
Answer with the value and then the unit.

molecule: Cc1cccnc1[C@H](Nc1c(Nc2ccc(F)c(C(=O)N(C)C)c2O)c(=O)c1=O)C1(C)CC(F)(F)C1 [compound 089]
observed measurement: 96.4 ng/mL
--
molecule: CN(C)C(=O)c1nccc(Nc2c(NC(c3nc(F)ccc3F)C3(C)CC4CC4C3)c(=O)c2=O)c1O (stereo not shown) [compound 126]
observed measurement: 266 ng/mL
--
molecule: Cc1nccnc1[C@H](Nc1c(Nc2ccc(F)c(C(=O)N(C)C)c2O)c(=O)c1=O)C1(C)CCCC1 [compound 130]
observed measurement: 158 ng/mL
--
molecule: Cc1cccnc1[C@H](Nc1c(Nc2ccnc(C(=O)N(C)C)c2O)c(=O)c1=O)[C@]1(C)CC(F)(F)CO1 (single isomer, unassigned) [128B]
observed measurement: 182 ng/mL
--
molecule: Cc1cc(F)cnc1[C@H](Nc1c(Nc2ccnc(C(=O)N(C)C)c2O)c(=O)c1=O)[C@@]1(C)CC(F)(F)CO1 [093B]
observed measurement: 285 ng/mL
--
molecule: Cc1cc(F)cnc1[C@H](Nc1c(Nc2ccnc(C(=O)N(C)C)c2O)c(=O)c1=O)[C@]1(C)CC(F)(F)CO1 [093A]
observed measurement: 271 ng/mL

Note: attention shifts to another entry.
The recorded Cmax for entry CN(C)C(=O)c1nccc(Nc2c(N[C@@H](c3nc(F)ccc3F)C3(C)CCCC3)c(=O)c2=O)c1O [compound 023] equals 335 ng/mL

###

Experiment: in vitro liver microsome metabolic stability, beagle dog
Type: in vitro ADME
Details: Beagle dog liver microsomes, 37°C
Decision: Liver microsome T1-2 (min) Beagle dog >= 200 min yields t, all other cases yield f.

compound: Cc1cccnc1C(Nc1c(Nc2ccc(F)c(C(=O)N(C)C)c2O)c(=O)c1=O)[C@]1(C)CC(F)(F)CO1 (some centres unmarked) [087A]
assigned label: t
//
compound: CN(C)C(=O)c1nccc(Nc2c(N[C@@H](c3ncc(F)cc3F)C3(C)CCCC3)c(=O)c2=O)c1O
assigned label: f
//
compound: CN(C)C(=O)c1nccc(Nc2c(N[C@@H](c3ccccn3)C3(C)CCCC3)c(=O)c2=O)c1O
assigned label: t
//
compound: CN(C)C(=O)c1nccc(Nc2c(N[C@@H](c3ccc(Cl)cn3)C3(C)CCCC3)c(=O)c2=O)c1O
assigned label: t

Now let's try a different one.
Inquiry: Assess whether reported Liver microsome T1-2 (min) Beagle dog for Cc1cccnc1[C@@H](Nc1c(Nc2ccnc(C(=O)N(C)C)c2O)c(=O)c1=O)[C@]1(C)CCC(F)(F)C1 (single isomer, unassigned) [125D] sits at 200 min or higher.
Reply text: t
